Molecular target: human muscarinic M4 receptor (Homo sapiens)
Construct: expressed in transfected cells
Sequence (P08173 1-479): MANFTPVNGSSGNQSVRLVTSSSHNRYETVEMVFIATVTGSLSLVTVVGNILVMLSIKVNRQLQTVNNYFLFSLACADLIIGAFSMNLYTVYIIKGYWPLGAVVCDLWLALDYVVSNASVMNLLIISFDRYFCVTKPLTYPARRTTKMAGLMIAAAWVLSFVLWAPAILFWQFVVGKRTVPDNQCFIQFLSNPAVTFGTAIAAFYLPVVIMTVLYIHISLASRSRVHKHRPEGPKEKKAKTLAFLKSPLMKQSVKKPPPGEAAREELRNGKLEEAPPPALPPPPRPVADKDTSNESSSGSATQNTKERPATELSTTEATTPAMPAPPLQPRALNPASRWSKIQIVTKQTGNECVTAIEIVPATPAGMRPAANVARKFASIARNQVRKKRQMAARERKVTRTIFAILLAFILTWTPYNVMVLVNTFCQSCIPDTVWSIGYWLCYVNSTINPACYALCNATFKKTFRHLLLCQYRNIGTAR
Experiment: Alphascreen Surefire phospho-ERK1/2 functional assay, M4
Type: cell-based
Conditions: CHO cells stably expressing human M4; relative to ACh
The following compounds are shown together with reported % Emax cf. ACh, M4 values.
RECORDED_ENDPOINT: % Emax cf. ACh, M4 (%)

compound="CCOC(=O)N1CCC2(CC(N3CCC(C4CCCNC4=O)CC3)C2)C1 (single isomer, unassigned) [4-1 Isomer 2]" target_system="human muscarinic M4 receptor (Homo sapiens)" recorded_endpoint="% Emax cf. ACh, M4" assay_result=47
compound="CCOC(=O)N1CCC2(CC(N3CCC([C@@H]4CCCN4C(=O)NCc4ccccn4)CC3)C2)C1 (single isomer, unassigned) [2-54 Isomer 1]" target_system="human muscarinic M4 receptor (Homo sapiens)" recorded_endpoint="% Emax cf. ACh, M4" assay_result=45
compound="CCOC(=O)N1CCC2(CC(N3CCC(n4cc(C)cn4)CC3)C2)C1 (single isomer, unassigned) [1-34 Isomer 2]" target_system="human muscarinic M4 receptor (Homo sapiens)" recorded_endpoint="% Emax cf. ACh, M4" assay_result=117
compound="CCOC(=O)N1CCC2(CC(N3CCC([C@@H]4CCCN4C(=O)NOC)CC3)C2)C1 (single isomer, unassigned) [2-33 Isomer 1]" target_system="human muscarinic M4 receptor (Homo sapiens)" recorded_endpoint="% Emax cf. ACh, M4" assay_result=109
compound="CCOC(=O)N1CCC2(CC(N3CCC(n4cc(C)cn4)CC3)C2)C1 (single isomer, unassigned) [1-34 Isomer 1]" target_system="human muscarinic M4 receptor (Homo sapiens)" recorded_endpoint="% Emax cf. ACh, M4" assay_result=48
compound="CCOC(=O)N1CCC2(CC(N3CCC(C4c5ccccc5CN4C(=O)NC)CC3)C2)C1 (single isomer, unassigned) [2-76 Isomer 2]" target_system="human muscarinic M4 receptor (Homo sapiens)" recorded_endpoint="% Emax cf. ACh, M4" assay_result=107
compound="CCOC(=O)N1CCC2(CC(N3CCC(C#N)(c4ccccn4)CC3)C2)C1 (single isomer, unassigned; isomer 1) [3-10 Isomer 1]" target_system="human muscarinic M4 receptor (Homo sapiens)" recorded_endpoint="% Emax cf. ACh, M4" assay_result=71
compound="CCOC(=O)N1CCC2(CC(N3CCC([C@@H]4CCCN4CCC(F)(F)F)CC3)C2)C1 (single isomer, unassigned) [2-70 Isomer 1]" target_system="human muscarinic M4 receptor (Homo sapiens)" recorded_endpoint="% Emax cf. ACh, M4" assay_result=52
compound="CCOC(=O)N1CCC2(CC(N3CCC([C@@H]4CCCN4C(=O)NOC)CC3)C2)C1 (single isomer, unassigned) [2-33 Isomer 2]" target_system="human muscarinic M4 receptor (Homo sapiens)" recorded_endpoint="% Emax cf. ACh, M4" assay_result=65
compound="CCOC(=O)N1CCC2(CC(N3CCC([C@@H]4CCCN4C(=O)N4Cc5cccnc5C4)CC3)C2)C1 (single isomer, unassigned) [2-133 Isomer 1]" target_system="human muscarinic M4 receptor (Homo sapiens)" recorded_endpoint="% Emax cf. ACh, M4" assay_result=70
